Listing of recorded composite z-score by entry.
system tested: Epidermal growth factor receptor (Homo sapiens)
procedure text: compounds binding epidermal growth factor receptor – biochemical, small-molecule microarray, 635 nm fluorescence, primary screen (AID 1104);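 also: score merges 667 nm emission intensity with spot signal to noise over triplicate slides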
measurement context: EGFR binding, higher = more signal
Would you mind answering with just the numeric figure?

# count of solved cases: 9
INSERT INTO results (compound, observable, reported) VALUES
  ('NCCCCCCNC(=O)[C@H]1C[C@H]2C(=O)N[C@@H](Cc3ccccc3)C(=O)N2[C@H]1c1cccc(OCCO)c1', 'composite z-score', 0.13),
  ('C=CCNC(=O)[C@H]1[C@@H]2C(=O)O[C@@H](c3ccccc3)[C@@H](c3ccccc3)N2[C@@H](c2ccc(O)cc2)[C@]12C(=O)Nc1ccc(C#CCCO)cc12', 'composite z-score', -0.326),
  ('C=CCN(Cc1ccccc1)C(=O)C(c1cccs1)N(C(=O)/C=C\C(=O)O)c1ccc(CCOCCO)cc1 (stereo not given)', 'composite z-score', -1.43),
  ('Cc1ccc(/C=C/C=O)cc1', 'composite z-score', -0.817),
  ('[N-]=[N+]=NCc1ccccc1[C@@H]1OC(c2ccc(OCCCO)cc2)=N[C@]1(CCS(=O)(=O)c1ccccc1)C(=O)N1CCCCC1', 'composite z-score', 0.453),
  ('COCCCNC(=O)[C@@]1(Sc2ccc(C)cc2)CC(=O)N(Cc2ccccc2Cl)[C@@H]1c1ccc(CO)cc1', 'composite z-score', 0.491),
  ('O=C1O[C@@H](c2ccccc2)[C@@H](c2ccccc2)N2[C@@H](c3ccc(OCCO)cc3)[C@]3(C(=O)Nc4ccc(C#CCCO)cc43)[C@@H](C(=O)NC[C@H](O)c3ccccc3)[C@H]12', 'composite z-score', 0.94),
  ('CC(C)C(=C=CC[C@H](O)c1ccc(CO)o1)CCO', 'composite z-score', -0.115),
  ('COc1ccc(NN2C(C(O)c3ccc(N(C)C)cc3)C=CC3C(=O)N(C4CCCCC4)C(=O)C32)cc1 (stereo not given)', 'composite z-score', 0.322);

Let us move to another entry and its composite z-score.
response.value for C=CCN1C(=O)[C@]2(O[C@H](CCO)[C@@H]([Si](C)(C)c3ccc(OC)cc3)[C@@H]2C)c2cc(N(C=O)c3ccccc3)ccc21 (field: composite z-score) = -0.414
